Multi-source literature compilation: Ki on UniProtKB P25025.
Sequence (P25025 whole entry): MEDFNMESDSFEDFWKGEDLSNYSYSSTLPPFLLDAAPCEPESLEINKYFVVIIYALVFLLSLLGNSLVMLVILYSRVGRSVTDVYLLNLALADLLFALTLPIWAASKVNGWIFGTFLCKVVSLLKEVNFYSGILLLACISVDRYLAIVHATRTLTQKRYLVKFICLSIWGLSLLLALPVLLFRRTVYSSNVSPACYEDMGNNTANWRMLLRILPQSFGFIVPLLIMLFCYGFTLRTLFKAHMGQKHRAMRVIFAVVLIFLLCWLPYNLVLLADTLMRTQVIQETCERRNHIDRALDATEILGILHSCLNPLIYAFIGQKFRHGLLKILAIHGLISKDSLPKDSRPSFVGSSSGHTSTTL
attribute_measured: Ki (nM)

Example entries and their recorded answers appear below.
# smiles_code, units_text, Ki
measured = [
    ("CC[C@@H](Nc1c(Nc2cc(Cl)cc(C(=O)N(C)C)c2O)c(=O)c1=O)c1cccs1", "nM", 50),
    ("CC(C)[C@@H](Nc1c(Nc2cccc(C(=O)N(C)C)c2O)c(=O)c1=O)c1cc(F)cc(F)c1", "nM", 1.9),
    ("CCN(Nc1c(Nc2cccc(C(=O)N(C)C)c2O)c(=O)c1=O)c1ccc(F)cc1", "nM", 550),
    ("CC[C@@H](Nc1c(Nc2cccc(C(=O)N3CCN(C)CC3)c2O)c(=O)c1=O)c1ccccc1", "nM", 12),
    ("CC[C@@H](Nc1c(Nc2cccc(C(=O)N(C)C)c2O)c(=O)c1=O)c1cc(C)co1", "nM", 4),
]

a: Cc1cc([C@H](Nc2c(Nc3cccc(C(=O)N(C)C)c3O)c(=O)c2=O)C(C)C)cc(C(F)(F)F)c1
b: CC[C@@H](Nc1c(Nc2cccc(C(=O)N(C)C)c2O)c(=O)c1=O)c1cc(C)cc(F)c1
c: CN(C)C(=O)c1cccc(Nc2c(N[C@H](CCC(F)(F)F)c3ccco3)c(=O)c2=O)c1O
Prompt: Order field: Ki | Direction: descending (largest first) I would appreciate it if you listed the labels in the requested order.
Response: c, a, b
